# System: insecticide-susceptible Drosophila melanogaster (Canton-S strain)
# Assay type: in vivo
# SETUP_CONDITIONS: solvent carriers tested alone under optimized bioassay conditions
REPORTED_ENDPOINT: mortality elicited by solvent carrier

Here's what some known entries look like.
| STRUCTURE_SMILES_STRING | mortality elicited by solvent carrier |
| --- | --- |
| COCCO | No mortality |
| C[S+](C)[O-] | No mortality |
| CC(C)=O | No mortality |
| CC(C)O | 100% |

Here is the next item to consider.
Q. Fill in the blank: the reported mortality elicited by solvent carrier of `CO` is ____.
A. No mortality

====

So I've got a bunch of molecules here, and I need their LC50 (95% CL) values.
# Test system: insecticide-susceptible Drosophila melanogaster (Canton-S strain)
# Format: in vivo
# SETUP_CONDITIONS: in vivo

Here is how some molecules turned out for LC50 (95% CL).
| MOLECULE | LC50 (95% CL) |
| --- | --- |
| c1ccc2[nH]ccc2c1 [INDOLE, indole] | 2769.0 (2137.0 − 7873.0) μg/jar |
| CC(=O)OC(C)(C)C [t-BUTYL acetate, t-butyl acetate] | 2134.0 (1943.0 − 2598.0) μg/jar |
| CCCOC(=O)CC [PROPYL propionate, propyl propionate] | 1931.0 (ND) μg/jar |

List LC50 (95% CL) for every entry below, keeping the order given.
1. CCOC(C)=O [ETHYL acetate, ethyl acetate]
2. Cc1oc2ccccc2c1C
3. CCCCCOC(C)=O [PENTYL acetate, pentyl acetate]
4. CCCCOC(=O)CC [BUTYL propionate, butyl propionate]

A.
1. 3530.0 (2488.0 − 12723.0) μg/jar
2. 1960.0 (1543.0 − 2452.0) μg/jar
3. 1792.0 (1658.0 − 1987.0) μg/jar
4. 2126.0 (1894.0 − 2670.0) μg/jar

====

# System: insecticide-susceptible Drosophila melanogaster (Canton-S strain)
# Type: in vivo
# SETUP_CONDITIONS: in vivo
Structures can show the parent of a compound that is named as a salt.
Please go through the items and note down their LC50 (95% CL).

Some solved cases for reference:
| COMPOUND | LC50 (95% CL) |
| --- | --- |
| CC(C)(C)OC=O [t-Butyl Formate, tert-butyl formate] | 1981.0 (1917.0 − 2048.4) μg/jar |
| CCCC(=O)OCC [ETHYL butyrate, ethyl butyrate] | 2034.0 (ND) μg/jar |
| CCCCC(=O)OCC [ETHYL valerate, ethyl valerate] | 2092.0 (1837.0 − 2670.0) μg/jar |

Q. What value of LC50 (95% CL) has been reported for the following compound? CC(=O)OC(C)C [ISO-PROPYL acetate, iso-propyl acetate]
A. 1611.0 (1458.0 − 1782.0) μg/jar

====

# Tested on: metabolically-resistant Hikone-R strain of Drosophila (elevated cytochrome P450)
# Assay type: in vivo
# SETUP_CONDITIONS: Table 3; Hikone-R, no synergist, 24 hr
Structures can show the parent of a compound that is named as a salt.
Assignment: determine reported Slope ± Std. Error (probit mortality line) for the given molecules.
Numbers only.

Some molecules with known Slope ± Std. Error (probit mortality line) results, for comparison:
| MOLECULE | OBS_VALUE |
| --- | --- |
| O=COCCOC=O [EGDF, ethylene glycol di-formate] | 5.02 |
| Cc1coc2c1CC[C@H](C)C2 | 4.12 |
| c1ccc2sccc2c1 | 4.42 |
| CC(C)(C)OC=O [t-Butyl Formate, tert-butyl formate] | 44.70 |

Take each entry in turn and give its Slope ± Std. Error (probit mortality line).
1. CCCCCCOC=O [Hexyl Formate, hexyl formate]
2. CCCOC=O [Propyl Formate, propyl formate]

A.
[3.26, 7.43]

====

# System: metabolically-resistant Hikone-R strain of Drosophila (elevated cytochrome P450)
# Type: in vivo
# SETUP_CONDITIONS: Table 2; Hikone-R, 24 hr
Structures can show the parent of a compound that is named as a salt.
REPORTED_ENDPOINT: Slope ± Std. Error (probit mortality line)

Take a look at these entries with their results.
| COMPOUND | OBS_VALUE |
| --- | --- |
| CN=C=S [Methylisothiocyanate (MITC), Methylisothiocyanate, reference compound] | 4.30 ± 0.62 |
| COP(=O)(OC)OC=C(Cl)Cl [Dichlorvos (DDVP), Dichlorvos, reference compound] | 4.64 ± 0.59 |
| CCCOC=O [Propyl Formate, propyl formate] | 7.43 ± 1.26 |
| O=COCCOC=O [EGDF, ethylene glycol di-formate] | 5.02 ± 2.41 |
| O=CO [Formic Acid, reference compound] | 3.29 ± 1.02 |

Hi, could you look up Slope ± Std. Error (probit mortality line) for each item in my list?
1. CCCCCCOC=O [Hexyl Formate, hexyl formate]
2. c1ccc2sccc2c1

A.
1: 3.26 ± 0.65; 2: 4.42 ± 0.46

Give Slope ± Std. Error (probit mortality line) for each listed item.
1. CC(C)(C)OC=O [t-Butyl Formate, tert-butyl formate]
2. Cc1coc2c1CC[C@H](C)C2

A.
[44.70, "4.12 ± 0.45"]

====

Would you kindly list LC50 (95% CL) for each of these compounds?
# System: insecticide-susceptible Drosophila melanogaster (Canton-S strain)
# Assay type: in vivo
# SETUP_CONDITIONS: in vivo
Counter-ions that a name gives are not always drawn.

Here is how some compounds turned out for LC50 (95% CL).
| COMPOUND | LC50 (95% CL) |
| --- | --- |
| CCCOC=O [Propyl Formate, propyl formate] | 1833.0 (1787.0 − 1884.0) μg/jar |
| CCCCOC(C)=O [n-BUTYL acetate, n-butyl acetate] | 1821.0 (1730.0 − 1930.0) μg/jar |
| CCCCC(=O)OC [METHYL valerate, methyl valerate] | 2209.0 (1897.0 − 2997.0) μg/jar |
| CCCOC(=O)CCC [PROPYL butyrate, propyl butyrate] | 2035.0 (ND) μg/jar |

Next up:
Q. API: value(readout= LC50 (95% CL), system= insecticide-susceptible Drosophila melanogaster (Canton-S strain), query= CCOC(=O)CC [ETHYL propionate, ethyl propionate] )
A. 3395.0 (2439.0 − 9039.0) μg/jar

====

# Tested on: insecticide-susceptible Drosophila melanogaster (Canton-S strain)
# Assay type: in vivo
# SETUP_CONDITIONS: in vivo
REPORTED_ENDPOINT: LC50 (95% CL)

| COMPOUND | TARGET_ENTITY | OBS_VALUE |
| --- | --- | --- |
| CCCCCCOC(C)=O [HEXYL acetate, hexyl acetate] | insecticide-susceptible Drosophila melanogaster (Canton-S strain) | 1666.0 (1582.0 − 1755.0) μg/jar |

Parameter requested: LC50 (95% CL). Apply to each item below.
1. CCCOC(C)=O [PROPYL acetate, propyl acetate]
2. CCC(=O)OC [METHYL propionate, methyl propionate]
3. CCCC(=O)OC [METHYL butyrate, methyl butyrate]

A.
["2056.0 (ND) μg/jar", "2391.0 (2076.0 − 3433.0) μg/jar", "2026.0 (1872.0 − 2314.0) μg/jar"]

The measured values listed here are drawn from patent US20070154393A1.
